B1: BCL2L13 (parent)
chain: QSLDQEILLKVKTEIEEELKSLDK

Variants of: B1
Assay Comment: protein stability index of a GFP-peptide fusion (GPS, HEK-293T) (PSI 1-6); higher = more stable;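 note: lentivirally expressed fusions sorted by FACS into six bins by GFP to DsRed ratio, PSI derived from sequencing read proportions per bin multiplied by bin number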
Experimental Context: c terminus: a fixed tail appended
Please note: criterion met applies when protein stability index is 4 or greater, and criterion not met applies otherwise.

    variant_descriptor     category_label
 0                L19H      criterion met
 1                 I7E      criterion met
 2                E18R      criterion met
 3                E16F  criterion not met
 4                D23P      criterion met
 5                K20L      criterion met
 6                K10Q      criterion met
 7                K20Q      criterion met
 8                K10F  criterion not met
 9                I15N      criterion met
10                K12P      criterion met
11                 E6L  criterion not met
12                K20G      criterion met
13                E17L  criterion not met
14                E14L  criterion not met
15                E17A      criterion met
16                E18G      criterion met
17                 D4K      criterion met
18                L19N      criterion met
19                I15K      criterion met
20                 Q5V  criterion not met
21                 L3F      criterion met
22                E17I  criterion not met
23                T13I  criterion not met
24                 L3T      criterion met
25                 D4M  criterion not met
26                T13Y      criterion met
27                K24M  criterion not met
28                L22D      criterion met
29                 Q1C      criterion met
30                K20D      criterion met
31                K10V  criterion not met
32                T13M  criterion not met
33                 S2F      criterion met
34                V11C      criterion met
35                K10R  criterion not met
36                 L9P      criterion met
37                T13V  criterion not met
38                D23Q      criterion met
39                E14S      criterion met
40                 D4E      criterion met
41                K24D      criterion met
42                 E6H      criterion met
43                L19C      criterion met
